All values here come from patent EP2529738A1.

- testTarget: full length RIIα-His (Homo sapiens, UniProt P13861)
- Construct: 20 µM unlabelled PKA-RIIα FL(1-404)-His; His (C)
- Sequence (P13861 whole entry): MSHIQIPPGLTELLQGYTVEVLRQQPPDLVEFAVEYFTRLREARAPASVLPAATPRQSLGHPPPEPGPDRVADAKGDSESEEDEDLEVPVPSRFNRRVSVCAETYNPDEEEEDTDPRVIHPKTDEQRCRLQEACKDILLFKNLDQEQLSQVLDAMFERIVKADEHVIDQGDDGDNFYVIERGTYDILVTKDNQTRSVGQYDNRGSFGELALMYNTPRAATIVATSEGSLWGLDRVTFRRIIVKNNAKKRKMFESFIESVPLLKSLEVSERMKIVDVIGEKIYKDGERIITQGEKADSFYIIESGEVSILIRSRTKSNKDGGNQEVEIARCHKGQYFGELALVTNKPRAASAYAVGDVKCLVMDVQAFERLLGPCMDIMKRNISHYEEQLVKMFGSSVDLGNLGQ
- methodSummary: saturation transfer difference (STD) NMR binding experiment
- setupConditions: result in words; reduction in ligand peak intensity indicates binding
quantityName: binding of the compounds to RIIα in STD experiments

>  <molecule>
CCOC(=O)CCc1cnc(C#N)c(-c2ncccc2C)c1

>  <result>
No binding was detected

$$$$
>  <molecule>
Cc1cc(-c2nc(CCCNCc3ccccc3)cc3c2CCC3)cnc1-c1cc(CCC(=O)O)cnc1C(N)=O [14c]

>  <result>
No binding was detected

$$$$
>  <molecule>
Cc1cc(-c2nc(CCCN)cc3c2CCC3)cnc1-c1cc(CCC(=O)O)cnc1C(N)=O [14b]

>  <result>
No binding was detected

$$$$
